# System: SF-539
# method-notes: NCI tumour cell line growth inhibition, 48 h
Activity calls are given as the source filed them. No stated cut-off is given here; in the data, active = GI50 up to about 1.1 µM and inactive = higher.
Classes used: T (active), F (inactive)

- molecule: "CCOC(=O)c1cc2c3c(c(O)c(OC)c2s1)N(C(=O)c1cc2c4c(c(O)c(OC)c2s1)N(C(C)=O)CC4)CC3"
  qualitative-label: "F"
- molecule: "O=c1/c(=C/c2ccc(-c3ccc(Cl)cc3Cl)o2)sc2n1[C@@H](c1ccc(Cl)cc1)C=C(c1cc(F)c(Cl)cc1Cl)N=2"
  qualitative-label: "F"
- molecule: "Nc1nc(Nc2ccccc2)sc1C(=O)c1ccc(Cl)cc1"
  qualitative-label: "F"
- molecule: "CS(=O)(=O)c1nc(Cl)c(Cl)c(C#N)c1Cl"
  qualitative-label: "F"
- molecule: "CC(=O)OC(C)c1cc2c(s1)C(=O)c1scc(C(C)OC(C)=O)c1C2=O (stereo not given)"
  qualitative-label: "T"
